Study system: HIV integrase (Human immunodeficiency virus type 1 group M subtype B, UniProt P04585)
Construct: The HIV integrase used in these assays was expressed in E. coli; made in house; host or cells: E. coli
Procedure text: biochemical
Type: biochemical
Conditions: 50 μM peptide; results normalized to His-Cys-Lys-Phe-Trp-Trp-NH2 (SEQ ID NO: 19)
Residues, ends and D or L forms follow the SMILES beside them.
Parameter threshold = 70%. Response is class 1 when % Inhibition of HIV integrase activity meets or exceeds it, else class 0.

[[record]]
compound = "NCCCC[C@H](NC(=O)[C@H](CS)NC(=O)[C@@H](N)Cc1c[nH]cn1)C(=O)N[C@@H](Cc1ccccc1)C(=O)N[C@@H](Cc1c[nH]c2ccccc12)C(=O)N[C@@H](Cc1c[nH]c2ccccc12)C(N)=O [compound 19] (H-HCKFWW-NH2)"
class_name = "class 1"

[[record]]
compound = "NCCCC[C@H](NC(=O)[C@H](CS)NC(=O)[C@@H](N)Cc1c[nH]cn1)C(=O)N[C@@H](Cc1ccccc1)C(=O)N[C@@H](Cc1c[nH]c2ccccc12)C(=O)N[C@@H](CS)C(N)=O [compound 6] (H-HCKFWC-NH2)"
class_name = "class 0"

[[record]]
compound = "NCCCC[C@H](NC(=O)[C@H](CS)NC(=O)[C@@H](N)Cc1c[nH]cn1)C(=O)N[C@@H](Cc1ccccc1)C(=O)N[C@@H](Cc1c[nH]c2ccccc12)C(=O)N[C@@H](CCC(N)=O)C(N)=O [compound 8] (H-HCKFWQ-NH2)"
class_name = "class 0"

[[record]]
compound = "NCCCC[C@H](NC(=O)[C@H](CS)NC(=O)[C@@H](N)Cc1c[nH]cn1)C(=O)N[C@@H](Cc1ccccc1)C(=O)N[C@@H](Cc1c[nH]c2ccccc12)C(=O)N[C@@H](Cc1ccccc1)C(N)=O [compound 15] (H-HCKFWF-NH2)"
class_name = "class 1"

[[record]]
compound = "CC(C)C[C@H](NC(=O)[C@H](Cc1c[nH]c2ccccc12)NC(=O)[C@H](Cc1ccccc1)NC(=O)[C@H](CCCCN)NC(=O)[C@H](CS)NC(=O)[C@@H](N)Cc1c[nH]cn1)C(N)=O [compound 12] (H-HCKFWL-NH2)"
class_name = "class 0"

[[record]]
compound = "NCCCC[C@H](NC(=O)[C@H](CS)NC(=O)[C@@H](N)Cc1c[nH]cn1)C(=O)N[C@@H](Cc1ccccc1)C(=O)N[C@@H](Cc1c[nH]c2ccccc12)C(=O)N1CCC[C@H]1C(N)=O [compound 16] (H-HCKFWP-NH2)"
class_name = "class 0"

